target: human recombinant IL-21 (expressed in E. coli as the mature peptide); residues 30-162 of SEQ ID NO: 1 with an … (human, UniProt Q9HBE4 30-162); assay: cell-based or functional assay
Sequence (Q9HBE4 other isoform, or with tags, fused parts or gaps): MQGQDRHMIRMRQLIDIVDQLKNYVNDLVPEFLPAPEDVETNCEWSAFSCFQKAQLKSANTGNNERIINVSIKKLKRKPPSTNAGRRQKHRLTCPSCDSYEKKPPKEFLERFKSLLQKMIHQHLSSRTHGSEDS
quantity_measured: IC50 (nM) in B cell proliferation assay, Donor 2
Give bare numbers, in nM.

For orientation, consider the following solved cases.
INSERT INTO results (binder, readout_value) VALUES
  ('mAb62 (mAb37 variant, heavy chain K65R) (antibody, human IgG4 S228P, kappa, V domains shown, Human IgG4(S241P), kappa) VH: EVQLVESGGGLVKPGGSLRLSCAASGFIFSSYSMNWVRQAPGKGLEWVSSITSGSYYIHYADSVRGRFTISRDNAKNSLYLQMNSLRAEDTAVYYCVRERGWGYYGMDVWGQGTTVTVSS VL: AIQLTQSPSSLSASVGDRVTITCRASQDIDSALAWYQQKPGKAPKILIHDASSLESGVPSRFSGSGSGTDFTLTISSLQPEDFATYYCQQFNSYPYTFGQGTKLEIKR', 0.23),
  ('mAb65 (mAb37 variant, light chain D30E) (antibody, human IgG4 S228P, kappa, V domains shown, Human IgG4(S241P), kappa) VH: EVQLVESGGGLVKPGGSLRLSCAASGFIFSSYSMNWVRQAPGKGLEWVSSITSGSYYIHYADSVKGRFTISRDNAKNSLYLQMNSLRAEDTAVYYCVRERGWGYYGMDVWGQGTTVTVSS VL: AIQLTQSPSSLSASVGDRVTITCRASQDIESALAWYQQKPGKAPKILIHDASSLESGVPSRFSGSGSGTDFTLTISSLQPEDFATYYCQQFNSYPYTFGQGTKLEIKR', 0.19),
  ('mAb64 (mAb37 variant, light chain Q27N) (antibody, human IgG4 S228P, kappa, V domains shown) VH: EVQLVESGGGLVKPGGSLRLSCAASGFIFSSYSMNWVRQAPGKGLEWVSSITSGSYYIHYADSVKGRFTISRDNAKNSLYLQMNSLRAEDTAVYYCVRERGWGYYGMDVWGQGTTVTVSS VL: AIQLTQSPSSLSASVGDRVTITCRASNDIDSALAWYQQKPGKAPKILIHDASSLESGVPSRFSGSGSGTDFTLTISSLQPEDFATYYCQQFNSYPYTFGQGTKLEIKR', 0.74);

Look up and report measured IC50 (nM) in B cell proliferation assay, Donor 2 for this entry: mAb61 (mAb37 variant, heavy chain D62E) (antibody, human IgG4 S228P, kappa, V domains shown, Human IgG4(S241P), kappa) VH: EVQLVESGGGLVKPGGSLRLSCAASGFIFSSYSMNWVRQAPGKGLEWVSSITSGSYYIHYAESVKGRFTISRDNAKNSLYLQMNSLRAEDTAVYYCVRERGWGYYGMDVWGQGTTVTVSS VL: AIQLTQSPSSLSASVGDRVTITCRASQDIDSALAWYQQKPGKAPKILIHDASSLESGVPSRFSGSGSGTDFTLTISSLQPEDFATYYCQQFNSYPYTFGQGTKLEIKR
0.21
